Conditions: 39% to 50% relative humidity, dark, air, 2 d; measured 41.1% (Form A 39%), 23° C.
reported_endpoint: HPLC-purity
In your response, put the unit directly after the numeric value.

- molecule: "Nc1nc(O)c2c(CCc3ccc(C(=O)N[C@@H](CCC(=O)O)C(=O)O)cc3)c[nH]c2n1 [Form A]"
  reported: "99.68%"
- molecule: "Nc1nc(O)c2c(CCc3ccc(C(=O)N[C@@H](CCC(=O)O)C(=O)O)cc3)c[nH]c2n1 [Form IV]"
  reported: "99.84%"
- molecule: "Nc1nc(O)c2c(CCc3ccc(C(=O)N[C@@H](CCC(=O)O)C(=O)O)cc3)c[nH]c2n1 [Heptahydrate]"
  reported: "99.84%"

Could you now consider this next molecule?
Exercise: Recorded HPLC-purity for Nc1nc(O)c2c(CCc3ccc(C(=O)N[C@@H](CCC(=O)O)C(=O)O)cc3)c[nH]c2n1 [2.5 hydrate] , please?
Solution: 99.83%
